From: patent EP0966960A1

- protocol: Acute toxicity test on mice
- Set-up: species or system mouse (ICR male)
- condition info: mouse, in vivo; oral by gastric probe, 1000 or 2000 mg/kg, n=3, 7 days observation; approximate, estimated from survival rate
test readout: LD50 at 168 h

Look at this compound and give its reported LD50 at 168 h. CC1=C(/C=C/C(C)=C/C=C/C(C)=C/C=C/C=C(C)/C=C/C=C(C)/C=C/C2=C(C)C[C@@H](O)CC2(C)C)C(C)(C)C[C@H](O)C1 [zeaxanthin]
> 2000 mg/kg
